# System: SNB-75
# METHOD_DESCRIPTION: NCI tumour cell line growth inhibition, 48 h
Calls of active or inactive are those of the source. Cut-off read from the data, not from the text of the source: active = GI50 up to about 1.1 µM and inactive = higher.
Outcomes: true (1) = active, false (0) = inactive

NC(=O)COC(=O)c1c(Cl)nc2sccn12 ... false (0)
Cn1c(=O)nc2n(-c3ccc(Cl)cc3)c3cc(Cl)ccc3nc-2c1=O ... false (0)
Cn1cnc([N+](=O)[O-])c1Sc1nc(N)nc2c1ncn2C1OC(CO)C(O)C1O (centres undefined) ... false (0)
C=C1C(=O)OC2CC1CCC1(C)OC1CCC(C)=CCCC2(C)O (centres undefined) ... false (0)
COC(=O)/N=C(\NC(=O)OC)Nc1ccc(Oc2ccccc2)cc1NC=O ... true (1)
O=C1N=C(S)NNC12c1ccccc1-c1ccccc12 ... false (0)
COC(=O)C(=Cc1cc(OC)ccc1OC)C(=O)OC ... false (0)
CC(CCc1ccccc1)NCC(O)n1c(/N=N/N(C)C)nc2c1c(=O)n(C)c(=O)n2C (centres undefined) ... false (0)
C[C@@H]1O[C@@H](O[C@H]2CC[C@]3(C=O)[C@H]4CC[C@]5(C)[C@@H](C6=CC(=O)OC6)CC[C@]5(O)[C@@H]4CC[C@]3(O)C2)[C@H](O)[C@H](O)[C@H]1O [CONVALLATOXIN] ... true (1)
COc1ccc(/C=C/C(=O)c2sc(NC(=S)NC(=O)c3ccccc3F)nc2C)cc1OC ... false (0)
O=C(OC1CC(n2cc(F)c(=O)[nH]c2=O)OC1CSC(=O)c1ccccc1)c1ccccc1 (centres undefined) ... false (0)
CC1(C)C2CCC(CN)(C2)C1O (centres undefined) ... false (0)
COc1cc2c(c(OC)c1OC)-c1ccc(SC)c(=O)cc1[C@@H](NC(=O)c1ccc(Cl)cc1)CC2 ... false (0)
CNC(=O)Nc1ccccc1 ... false (0)
NC(=S)c1cccc(C2Nc3ccccc3O2)c1 (centres undefined) ... false (0)
CCOC(=O)NN(C(=O)OCC)c1ccc(/N=N/c2ccc(OC)cc2)n1C ... false (0)
C[C@]12CCC(=O)C=C1CC[C@@H]1C2CC[C@]2(C)Nc3c(cnn3-c3ccccc3)CC12 (some centres undefined) ... false (0)
CC1CC2C3CCC4=CC(=O)C=CC4(C)C3(F)C(O)CC2(C)C1(O)C(=O)CO.Cc1cc(NS(=O)(=O)c2ccc(/N=N\c3cc(/N=N/c4ccc(S(=O)(=O)Nc5cc(C)nc(C)n5)cc4)c(OC(=O)C(Cl)Cl)c4cccc(NC(=O)C(Cl)Cl)c34)cc2)nc(C)n1 ... false (0)
CSc1nc(O)c(C#N)c(-c2ccc(Cl)cc2)n1 ... false (0)

* * *

# System: UO-31
# METHOD_DESCRIPTION: NCI tumour cell line growth inhibition, 48 h
The source made the active and inactive calls. No stated cut-off is given here; in the data, active = GI50 up to about 1.1 µM and inactive = higher. Where a SMILES comes first, the peptide text is derived from it. [ ]: non-standard residue; d: D form. The star is where a group is joined. ξ: configuration not given here. X38 = O=C(OCc1ccccc1)[C@@H]1CCC[C@H]1N*; Fmoc = O=C(OCC1c2ccccc2-c2ccccc21)*; ξW = NC(Cc1c[nH]c2ccccc12)C(=O)O; ξNMe2Val = CC(C)C(C(=O)*)N(C)C; NMeV = CN[CH](C(=O)O)C(C)C; ξF = NC(Cc1ccccc1)C(=O)O; Boc = CC(C)(C)OC(=O)*; NHBn = c1ccc(CN*)cc1; ξK = NCCCCC(N)C(=O)O; ξT = CC(O)C(N)C(=O)O; tBu = CC(C)(C)*
Possible outcomes: active, inactive

CCOC(=O)C1S/C(=N\c2cccc(Cl)c2C)N=C1C (stereo unspecified) ... inactive
O=C1CCC2(c3ccccc3)Nc3ccccc3N12 (stereo unspecified) ... inactive
Cc1c(/C=N/NC(=S)Nc2ccc([N+](=O)[O-])cc2)c(=O)n(-c2ccccc2)n1C ... inactive
CCn1c(=O)c2cn[nH]c2n(C)c1=O ... inactive
COc1cc(C(=O)OC2CC(C)=CC[C@@]3(C)CC[C@](O)(C(C)C)C23)ccc1O (stereo partly specified) ... inactive
CO/C=C(\Br)c1ccc2c(c1)OCO2 ... inactive
COc1ccc(/C=C2/S/C(=N\c3ccccc3)N(NC(=O)Cc3ccccc3)C2=O)cc1 ... inactive
COc1cc2c(c(OC)c1OC)C(=O)c1c(O)cc(C)c(OC)c1C2=O ... inactive
CN(C(=O)Nc1ccc(Cl)c(Cl)c1)C1CCCC[C@@H]1N1CCCC1 (stereo partly specified) ... inactive
O=C1NC2C(O)CCCCC2C12CCCCC2 (stereo unspecified) ... inactive
CNC(=O)Nc1ccccc1 ... inactive
CN1C(=O)CCC1c1ccc2c(c1)oc(=O)n2C (stereo unspecified) ... inactive
CCOC(=O)C(=O)Nc1ccccc1OCC ... inactive
CC(C)=NOC(=O)Nc1cccc2c1OCO2 ... inactive
CC(C)C(NC(=O)C(C(C)C)N(C)C)C(=O)N(C)C(C(=O)N1CCCC1C(=O)N1CCCC1C(=O)NCc1ccccc1)C(C)C (stereo unspecified) (ξNMe2Val-V[NMeV]PP-NHBn; configuration not given here) ... active
O=C(O)/C(Cl)=C(\Cl)C(=O)Nc1ccc(Cl)c(Cl)c1Cl ... inactive
CSc1nc(SC)c2c(C)cn(C3OC(C)C(O)C(O)C3O)c2n1 (stereo unspecified) ... inactive
O=C(c1c(F)c(F)c(F)c(F)c1F)c1c(F)c(F)c(F)c(F)c1F ... inactive
CC(OC(C)(C)C)C(NC(=O)C(CCCCNC(=O)OC(C)(C)C)NC(=O)C(Cc1c[nH]c2ccccc12)NC(=O)C(Cc1ccccc1)NC(=O)OCC1c2ccccc2-c2ccccc21)C(=O)NC(Cc1ccccc1)C(=O)N[C@@H]1CCC[C@H]1C(=O)OCc1ccccc1 (stereo partly specified) (Fmoc-[ξF][ξW][ξK](Boc)[ξT](tBu)[ξF]-X38) ... inactive
Nc1nc(O)c2nc(CNc3ccc(C(=O)NC(CCC(=O)O)C(=O)O)cc3)cnc2n1 (stereo unspecified) ... inactive
CC12CCC(=O)N1c1cc([N+](=O)[O-])ccc1N2 (stereo unspecified) ... inactive
C/C(=N/NC(=O)C[n+]1ccccc1)C(CN(CC(C)C)CC(C)C)C(=O)Nc1ccc(C)cc1C (stereo unspecified) ... inactive
O=c1cc(-c2ccccc2)[nH]c2ccc(N3CCOCC3)cc12 ... inactive
CN(CCO)Cc1ncccc1O ... inactive
OCCCCCCOc1ccc(-c2cc(-c3ccccn3)nc(-c3ccccn3)c2)cc1 ... active
CC(C)(C)c1cc2c3c(c1)c(=O)c1cccc4c(O)c5cccc(c2=O)c5c-3c41 ... inactive
Cc1c(C(=O)CSc2nc3ccccc3c(=O)n2-c2ccccc2)c(=O)n(-c2ccccc2)n1C ... inactive
O=C1C=C(Nc2cccnc2)c2ccccc2/C1=N/O ... inactive
COC(=O)C(=Cc1cc(OC)ccc1OC)C(=O)OC ... inactive
O=C1/C(=C\c2ccc([N+](=O)[O-])o2)SC2NC(COc3ccc(Cl)cc3)=NN12 (stereo unspecified) ... inactive
CC(N)C(=O)OCN1C(=O)C2C3C=CC(C2C1=O)C1C2C(=O)N(COC(=O)C(C)N)C(=O)C2C31 (stereo unspecified) ... inactive
CCOC(=O)Cc1nc2nn(Cc3ccccc3)cc2c(=O)[nH]1 ... inactive
O=C(Nc1ccccc1[N+](=O)[O-])c1ccccc1 ... inactive
CCC(C)C(=O)OCC(=O)c1ccc(-c2ccccc2)cc1 (stereo unspecified) ... inactive
O=C(/C=C/c1cccs1)c1cccc(C(=O)/C=C/c2cccs2)n1 ... inactive
Cn1cnc([N+](=O)[O-])c1Sc1nc(N)nc2c1ncn2C1OC(CO)C(O)C1O (stereo unspecified) ... inactive
COc1ccc(N(C)CN(C)c2nc(N(C)C)nc(N(C)C)n2)cc1 ... inactive
CNC(=S)N1CCN(C(C)=O)C1=S ... inactive
COc1ccc2c(c1)/C(=C\c1c(Cl)nc3sc(C)cn13)C(=O)N2 ... inactive
CC(=O)Oc1cc(S(=O)(=O)Nc2n[nH]c(Nc3ccc(C)cc3)n2)c(S)cc1Cl ... inactive
O=C1C=CC2(O[C@H](C3CCCCC3)[C@@H](C3CCCCC3)O2)C(SC(=O)c2ccccc2)C1 (stereo partly specified) ... inactive

* * *

# Test system: HOP-92
# METHOD_DESCRIPTION: NCI tumour cell line growth inhibition, 48 h
Active and inactive are the calls of the source. Cut-off read from the data, not from the text of the source: active = GI50 up to about 1.1 µM and inactive = higher.
Labels: 1 = active, 0 = inactive

CCOP(=O)(OCC)C(N)Cc1ccc(OC)c(OC)c1 (stereo not given) ... 0
COC(=O)[C@@]12C=CC(=O)[C@H]3C[C@@H](C(C(C)C)C1)[C@]32OC (stereo not given in full) ... 0
CC(C)C1(NC(=O)C2CC3c4cccc5[nH]cc(c45)CC3N(C)C2)OC2(O)C3CCCN3C(=O)C(Cc3ccccc3)N2C1=O (stereo not given) ... 0
CC(=O)Oc1cc(S(=O)(=O)Nc2n[nH]c(Nc3ccc(C)cc3)n2)c(S)cc1Cl ... 0
O=c1cc(-c2ccccc2)[nH]c2ccc(N3CCOCC3)cc12 ... 1
Nc1nc(CCC(=O)Nc2cccc(C(F)(F)F)c2)cc(-c2ccc3ccccc3c2)n1 ... 0
C=CCn1c(=O)c2ccccc2[n+]2c(-c3cccc([N+](=O)[O-])c3)csc12 ... 0
Cc1nsc2cc(Cl)n(C)c(=O)c12 ... 0
COC(=O)[C@@H](Cc1ccccc1)N1O[C@]12CCCC[C@@H]2NC(=O)OC(C)(C)C (stereo not given in full) ... 0
CCc1nc(N)nc(N)c1-c1ccc(Cl)c(N=[N+]=[N-])c1 ... 0

Value source: ChEMBL document CHEMBL1201862
